These data points were gathered from patent US4873253A.

Molecular target: bovine trypsin (Bos taurus, UniProt P00760)
Sequence (P00760 24-246): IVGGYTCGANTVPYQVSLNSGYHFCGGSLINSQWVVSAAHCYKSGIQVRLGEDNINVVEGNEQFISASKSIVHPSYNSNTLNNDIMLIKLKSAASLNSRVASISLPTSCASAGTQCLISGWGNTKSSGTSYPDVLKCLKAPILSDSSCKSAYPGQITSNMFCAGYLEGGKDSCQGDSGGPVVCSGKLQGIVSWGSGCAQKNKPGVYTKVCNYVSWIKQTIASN
Test: Antitrypsin activity: inhibition of S-2238 decomposition
Format: biochemical
Settings: Table 2; substrate S-2238, pH 8.1, 37° C.; read-out: Trypsin S-2238 I50
Structures can show the parent of a compound that is named as a salt.
observable: IC50

[[record]]
molecule = "NC[C@H]1CC[C@H](C(=O)NC(Cc2cccc(Oc3ccccc3)c2)C(N)=O)CC1 (mixture of isomers) [Compound 21, hydrochloride]"
assaysystem = "bovine trypsin (Bos taurus, UniProt P00760)"
readoutvalue = "> 150 µM"

[[record]]
molecule = "COCCCNC(=O)C(Cc1cccc(C(=O)c2ccccc2)c1)NC(=O)[C@H]1CC[C@H](CN)CC1 (stereo partly shown)"
assaysystem = "bovine trypsin (Bos taurus, UniProt P00760)"
readoutvalue = "8.2 µM"

[[record]]
molecule = "CC(=O)c1ccc(NC(=O)C(Cc2cccc(Oc3ccccc3)c2)NC(=O)c2ccc(NC(=N)N)cc2)cc1 (stereo not shown)"
assaysystem = "bovine trypsin (Bos taurus, UniProt P00760)"
readoutvalue = "15 µM"

[[record]]
molecule = "NC[C@H]1CC[C@H](C(=O)NC(Cc2cccc(C(F)(F)F)c2)C(=O)N2CCOCC2)CC1 (mixture of isomers) [Compound 29, hydrochloride]"
assaysystem = "bovine trypsin (Bos taurus, UniProt P00760)"
readoutvalue = "> 150 µM"

[[record]]
molecule = "NC[C@H]1CC[C@H](C(=O)NC(Cc2cccc(OCc3ccccc3)c2)C(=O)Nc2cccnc2)CC1 (mixture of isomers) [Compound 22, dihydrochloride]"
assaysystem = "bovine trypsin (Bos taurus, UniProt P00760)"
readoutvalue = "> 150 µM"

[[record]]
molecule = "Cc1ccc(NC(=O)C(Cc2cccc(Oc3ccccc3)c2)NC(=O)[C@H]2CC[C@H](CN)CC2)cc1 (stereo partly shown)"
assaysystem = "bovine trypsin (Bos taurus, UniProt P00760)"
readoutvalue = "15 µM"

[[record]]
molecule = "NC[C@H]1CC[C@H](C(=O)NC(Cc2cccc(Oc3ccccc3)c2)C(=O)N2CCC(C(=O)O)CC2)CC1 (stereo partly shown)"
assaysystem = "bovine trypsin (Bos taurus, UniProt P00760)"
readoutvalue = "> 150 µM"

[[record]]
molecule = "COCCCNC(=O)C(Cc1cccc(C(F)(F)F)c1)NC(=O)[C@H]1CC[C@H](CN)CC1 (stereo partly shown)"
assaysystem = "bovine trypsin (Bos taurus, UniProt P00760)"
readoutvalue = "87 µM"


## Task Look up IC50: NC[C@H]1CC[C@H](C(=O)NC(Cc2cccc(Oc3ccccc3)c2)C(=O)N2CCOCC2)CC1 (stereo partly shown)
## Result > 150 µM

## Task Look up IC50: NC[C@H]1CC[C@H](C(=O)NC(Cc2cccc(Oc3ccccc3)c2)C(=O)O)CC1 (mixture of isomers)
## Result > 150 µM

## Task Look up IC50: CCOC(=O)c1cccc(NC(=O)C(Cc2cccc(Oc3ccccc3)c2)NC(=O)[C@H]2CC[C@H](CN)CC2)c1 (stereo partly shown)
## Result 2.3 µM

## Task Look up IC50: NC[C@H]1CC[C@H](C(=O)NC(Cc2cccc(Oc3ccc(Br)cn3)c2)C(=O)N2CCOCC2)CC1 (stereo partly shown)
## Result > 150 µM

## Task Look up IC50: CCOC(=O)C1CCN(C(=O)C(Cc2cccc(Oc3ccccc3)c2)NC(=O)[C@H]2CC[C@H](CN)CC2)CC1 (stereo partly shown)
## Result > 150 µM

----------
target: human plasmin (Homo sapiens, UniProt P00747); assay: Antiplasmin activity: inhibition of fibrin decomposition; assay type: biochemical; conditions: Table 2, pH 7.4, 37° C., read-out: Plasmin Fibrin I50 (concentration doubling fibrin dissolution time)
Sequence (P00747 581-810 limits assumed): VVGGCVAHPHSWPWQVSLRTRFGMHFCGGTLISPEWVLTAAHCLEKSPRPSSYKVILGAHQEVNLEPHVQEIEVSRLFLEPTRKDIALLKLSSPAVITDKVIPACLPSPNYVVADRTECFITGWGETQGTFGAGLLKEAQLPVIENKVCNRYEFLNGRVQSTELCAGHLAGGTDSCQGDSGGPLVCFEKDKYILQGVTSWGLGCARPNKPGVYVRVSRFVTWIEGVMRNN
Sequence (P00747 97-580 limits assumed): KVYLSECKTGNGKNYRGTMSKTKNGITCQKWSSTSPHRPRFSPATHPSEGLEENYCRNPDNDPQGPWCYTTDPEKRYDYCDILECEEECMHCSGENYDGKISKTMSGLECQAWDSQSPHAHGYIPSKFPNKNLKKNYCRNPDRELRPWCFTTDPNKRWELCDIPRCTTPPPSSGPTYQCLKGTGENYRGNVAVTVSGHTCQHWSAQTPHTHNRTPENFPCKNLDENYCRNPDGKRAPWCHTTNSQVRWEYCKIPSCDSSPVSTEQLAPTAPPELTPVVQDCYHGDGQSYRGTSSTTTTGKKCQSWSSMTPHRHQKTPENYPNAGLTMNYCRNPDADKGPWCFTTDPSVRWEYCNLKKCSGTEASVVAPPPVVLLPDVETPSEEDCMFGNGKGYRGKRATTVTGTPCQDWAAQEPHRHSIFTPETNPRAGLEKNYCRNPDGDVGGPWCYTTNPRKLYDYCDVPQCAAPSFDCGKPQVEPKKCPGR
pIC50: −log10 of the molar value. Counter-ions that a name gives are not always drawn.
observable: pIC50

[[record]]
compound = "NC[C@H]1CC[C@H](C(=O)NC(Cc2cccc(Oc3ccccc3)c2)C(=O)Nc2ncc[nH]2)CC1 (stereo partly shown) [Compound 11]"
observable = "pIC50"
readoutvalue = 3.66


P. CC(=O)c1ccc(NC(=O)C(Cc2cccc(Oc3ccccc3)c2)NC(=O)[C@H]2CC[C@H](CN)CC2)cc1 (mixture of isomers) [Compound 2, hydrochloride]
Q. NC[C@H]1CC[C@H](C(=O)NC(Cc2cccc(Oc3ccccc3)c2)C(N)=O)CC1 (mixture of isomers) [Compound 21, hydrochloride]
## Task Out of P and Q , name the one with the higher pIC50. Refer to your chosen entry by its label in the reply.
## Result P

----------
# pIC50 values compiled below
Biological target: bovine thrombin (Bos taurus)
Construct: a 0.2 unit/ml bovine thrombin solution
Test: Antithrombin activity: inhibition of fibrin formation (fibrinogen)
Format: biochemical
Procedure: (i) Determination of inhibition activity against fibrin formation An inhibitor sample is dissolved in a 0.18 M borate-physiological salt buffer solution (pH= 7.4) to make the total volume to 500 μl. […] Thus, a coagulation time is determined. The inhibitor concentration I50 (μmol), at which the coagulation time obtained in the absence of the inhibitor is extended twice, is determined.
pIC50: −log10 of the molar value. Where a name gives a salt, the structure may show the parent alone.

[[record]]
compound = "Cc1ccc(NC(=O)C(Cc2cccc(Oc3ccccc3)c2)NC(=O)[C@H]2CC[C@H](CN)CC2)cc1 (stereo partly drawn)"
readoutvalue = "< 4.00"

[[record]]
compound = "NC[C@H]1CC[C@H](C(=O)NC(Cc2cccc(Oc3ccccc3)c2)C(N)=O)CC1 (mixture of isomers) [Compound 21, hydrochloride]"
readoutvalue = "< 3.70"

[[record]]
compound = "NC[C@H]1CC[C@H](C(=O)NC(Cc2cccc(C(F)(F)F)c2)C(=O)N2CCOCC2)CC1 (mixture of isomers) [Compound 29, hydrochloride]"
readoutvalue = "< 3.00"

[[record]]
compound = "CCOC(=O)c1cccc(NC(=O)C(Cc2cccc(Oc3ccccc3)c2)NC(=O)c2ccc(NC(=N)N)cc2)c1 (stereo not drawn)"
readoutvalue = "< 4.60"


## Task Look up pIC50: NC[C@H]1CC[C@H](C(=O)NC(Cc2cccc(Oc3ccccc3)c2)C(=O)Nc2ccccn2)CC1 (stereo partly drawn)
## Result < 3.30

## Task Look up pIC50: CCOC(=O)c1ccccc1NC(=O)C(Cc1cccc(Oc2ccccc2)c1)NC(=O)[C@H]1CC[C@H](CN)CC1 (mixture of isomers) [Compound 4, hydrochloride]
## Result < 4.30

----------
molecular target: human plasmin (Homo sapiens, UniProt P00747); experiment: Antiplasmin activity: inhibition of S-2251 decomposition; assay type: biochemical; settings: Table 2; substrate S-2251, pH 7.4, 37° C.
pIC50: −log10 of the molar value. Counter-ions that a name gives are not always drawn.
observable: pIC50

Use the examples below as a reference point.
[[record]]
compound = "CCOC(=O)c1cccc(NC(=O)C(Cc2cccc(Oc3ccccc3)c2)NC(=O)[C@H]2CC[C@H](CN)CC2)c1 (stereo partly drawn)"
readoutvalue = 4.51

[[record]]
compound = "NC[C@H]1CC[C@H](C(=O)NC(Cc2cccc(Oc3ccccc3)c2)C(N)=O)CC1 (mixture of isomers) [Compound 21, hydrochloride]"
readoutvalue = 3.49

[[record]]
compound = "NC[C@H]1CC[C@H](C(=O)NC(Cc2cccc(Oc3ccc(Br)cn3)c2)C(=O)N2CCOCC2)CC1 (stereo partly drawn)"
readoutvalue = 3.55

[[record]]
compound = "NC[C@H]1CC[C@H](C(=O)NC(Cc2cccc(Oc3ccccc3)c2)C(=O)Nc2ccncc2)CC1 (mixture of isomers) [Compound 8, dihydrochloride]"
readoutvalue = 4.19


a. N=C(N)Nc1ccc(C(=O)NC(Cc2cccc(Oc3ccccc3)c2)C(=O)Nc2ccc(CC(=O)O)cc2)cc1 (racemic) [Compound 36, hydrochloride]
b. CCOC(=O)C1CCN(C(=O)C(Cc2cccc(Oc3ccccc3)c2)NC(=O)[C@H]2CC[C@H](CN)CC2)CC1 (stereo partly drawn)
## Task Out of a and b , name the one with the higher pIC50. Refer to your chosen entry by its label in the reply.
## Result a

1. CC(=O)c1ccc(NC(=O)C(Cc2cccc(Oc3ccccc3)c2)NC(=O)[C@H]2CC[C@H](CN)CC2)cc1 (mixture of isomers) [Compound 2, hydrochloride]
2. Cc1ccc(NC(=O)C(Cc2cccc(Oc3ccccc3)c2)NC(=O)[C@H]2CC[C@H](CN)CC2)cc1 (stereo partly drawn)
## Task Please indicate which item has the smaller measured pIC50: 1 versus 2 Refer to your chosen entry by its label in the reply.
## Result 2

----------
target: human urokinase (Homo sapiens, UniProt P00749); assay: biochemical; details: Table 2; substrate S-2444, pH 8.8, 37° C.; read-out: Urokinase S-2444 I50
pIC50: −log10 of the molar value. Where a name gives a salt, the structure may show the parent alone.
observable: pIC50

1. NC[C@H]1CC[C@H](C(=O)NC(Cc2cccc(Oc3ccccc3)c2)C(=O)Nc2ccncc2)CC1 (mixture of isomers) [Compound 8, dihydrochloride]
2. CCOC(=O)C(Cc1cccc(Oc2ccccc2)c1)NC(=O)[C@H]1CC[C@H](CN)CC1 (mixture of isomers) [Compound 57, hydrochloride]
3. N=C(N)c1ccc(NC(=O)C(Cc2cccc(Oc3ccccc3)c2)NC(=O)[C@H]2CC[C@H](CN)CC2)cc1 (mixture of isomers) [Compound 5, dihydrochloride]
## Task Rank ascending by pIC50. // ordering of labels required in reply
## Result 2, 1, 3
(2: 3.46, 1: 4.06, 3: 4.42)
